# systemName: rat pituitary cells (Rattus norvegicus, UniProt O08725)
# Sequence (O08725 whole entry): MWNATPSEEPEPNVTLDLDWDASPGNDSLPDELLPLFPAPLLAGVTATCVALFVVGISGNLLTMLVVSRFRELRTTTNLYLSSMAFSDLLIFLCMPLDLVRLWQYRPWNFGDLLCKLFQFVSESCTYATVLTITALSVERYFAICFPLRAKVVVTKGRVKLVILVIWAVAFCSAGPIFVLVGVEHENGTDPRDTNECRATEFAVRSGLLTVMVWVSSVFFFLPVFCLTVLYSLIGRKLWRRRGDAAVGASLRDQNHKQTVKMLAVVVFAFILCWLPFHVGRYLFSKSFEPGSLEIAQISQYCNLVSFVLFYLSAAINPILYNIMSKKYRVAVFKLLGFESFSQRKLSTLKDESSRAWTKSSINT
# condition: read-out: PIT Cell EC50; Table VI, retroinverso compounds of formula V; GH release, 15 min incubation
Non-standard residues stand in square brackets, D forms with d. Residues, ends and D or L forms follow the SMILES beside them. 2Nal = N[C@@H](Cc1ccc2ccccc2c1)C(=O)O; Ava = NCCCCC(=O)O
EC50 less than 20 nM is 1.0; EC50 greater than or equal to 20 nM is 0.0.

INPUT: Check if EC50 falls below 20 nM for `O=C(N[C@@H](Cc1ccc2ccccc2c1)C(=O)N[C@@H](Cc1ccc2ccccc2c1)C(=O)NC1CCNCC1)C1CCNCC1` .
OUTPUT: 0.0

INPUT: For NCCCCC(=O)N[C@H](Cc1ccccc1)C(=O)N[C@@H](Cc1ccc2ccccc2c1)C(=O)N[C@@H](Cc1ccc2ccccc2c1)C(=O)N[C@@H](CCCCN)C(N)=O [(Ava) f B B K amide] (H-[Ava][dF][2Nal][2Nal]K-NH2) then?
OUTPUT: 0.0

INPUT: Can you handle `NCCCCNC(=O)[C@H](Cc1ccc2ccccc2c1)NC(=O)[C@H](Cc1ccc2ccccc2c1)NC(=O)[C@@H](Cc1ccccc1)NC(=O)CCCCN` next?
OUTPUT: 0.0

INPUT: Also, `NCCCNC(=O)[C@H](Cc1ccc2ccccc2c1)NC(=O)[C@H](Cc1ccc2ccccc2c1)NC(=O)[C@H](N)Cc1ccc2ccccc2c1` please.
OUTPUT: 1.0

INPUT: Okay, and `CC(=O)N[C@H](Cc1ccc2ccccc2c1)C(=O)N[C@@H](Cc1ccc2ccccc2c1)C(=O)N[C@@H](Cc1ccc2ccccc2c1)C(=O)NCCCN` ?
OUTPUT: 1.0
